Each record here notes measured Count.
target-under-test: Human MPZ (Homo sapiens)
Construct: purchased Novoprotein (lysate); Bon Opus Biosciences (recombinant protein) NBL1 1321 (lysate); no catalogue number printed for the Bon Opus protein
Sequence (P25189 30-248): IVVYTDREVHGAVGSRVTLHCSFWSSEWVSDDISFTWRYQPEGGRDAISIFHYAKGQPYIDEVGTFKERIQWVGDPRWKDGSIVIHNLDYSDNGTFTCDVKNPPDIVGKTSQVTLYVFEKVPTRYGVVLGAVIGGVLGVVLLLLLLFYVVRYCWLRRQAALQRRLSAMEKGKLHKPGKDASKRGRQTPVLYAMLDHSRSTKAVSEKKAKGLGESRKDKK
method-notes: Phage display library screening (Example 1, Power BI analysis), binding to Human MPZ
condition-set: R3 Human MPZ, NextGen sequencing count of phage sequences distinct for this target
measured-attribute: Count

{"columns": ["substance", "observed-measurement"],
 "data": [
  ["GDERIVRTLSHN (R3 Human MPZ-binding peptide)", 47],
  ["VLTKPMP (R3 Human MPZ-binding peptide)", 56],
  ["ALPLSAS (R3 Human MPZ-binding peptide)", 196],
  ["GPLRMAT (R3 Human MPZ-binding peptide)", 50],
  ["GLTPKLF (R3 Human MPZ-binding peptide)", 48],
  ["TMASPAK (R3 Human MPZ-binding peptide)", 52],
  ["SAHAKHH (R3 Human MPZ-binding peptide)", 51],
  ["LSSPLSL (R3 Human MPZ-binding peptide)", 56],
  ["RVPHSRT (R3 Human MPZ-binding peptide)", 49],
  ["KMAGHTV (R3 Human MPZ-binding peptide)", 51],
  ["IKPPYTH (R3 Human MPZ-binding peptide)", 78],
  ["VLKNNPT (R3 Human MPZ-binding peptide)", 86],
  ["ETTRNYG (R3 Human MPZ-binding peptide)", 68],
  ["TSPWELR (R3 Human MPZ-binding peptide)", 107]
]}

====

target-under-test: Human Nidogen-2 (human)
method-notes: phage display, NGS count
measured-attribute: Count

{"columns": ["substance", "target-under-test", "measured-attribute", "observed-measurement"],
 "data": [
  ["QTLRPKQ (peptide)", "Human Nidogen-2 (human)", "Count", 6],
  ["NILSQVN (peptide)", "Human Nidogen-2 (human)", "Count", 6],
  ["HSRLPTP (peptide)", "Human Nidogen-2 (human)", "Count", 13],
  ["EAMMHRN (peptide)", "Human Nidogen-2 (human)", "Count", 6],
  ["ALYLPGR (peptide)", "Human Nidogen-2 (human)", "Count", 7],
  ["WLAAGSQ (peptide)", "Human Nidogen-2 (human)", "Count", 6],
  ["ATYNMSQ (peptide)", "Human Nidogen-2 (human)", "Count", 7],
  ["GLRTMEP (peptide)", "Human Nidogen-2 (human)", "Count", 7],
  ["LSIRGLT (peptide)", "Human Nidogen-2 (human)", "Count", 6],
  ["TPWLPTI (peptide)", "Human Nidogen-2 (human)", "Count", 7],
  ["LHITPEV (peptide)", "Human Nidogen-2 (human)", "Count", 6],
  ["LVHPFHG (peptide)", "Human Nidogen-2 (human)", "Count", 8],
  ["YNHTMMY (peptide)", "Human Nidogen-2 (human)", "Count", 7],
  ["QLLESRT (peptide)", "Human Nidogen-2 (human)", "Count", 6],
  ["ARMAFSL (peptide)", "Human Nidogen-2 (human)", "Count", 7],
  ["TIASLLV (peptide)", "Human Nidogen-2 (human)", "Count", 6],
  ["QMDAKHM (peptide)", "Human Nidogen-2 (human)", "Count", 6]
]}
